# run description: DRUGMATRIX: Serotonin (5-Hydroxytryptamine) 5-HT3 radioligand binding (ligand: [3H] GR-65630)
# Assay type: cell membranes, Membrane
# study conditions: hek293; Not Active = under 50% inhibition at 10 µM
measured endpoint: Ki

Q: Sample CO[C@H]1[C@@H](O)[C@H](N)[C@@H](O[C@H]2O[C@H]([C@H](C)N)CC[C@H]2N)[C@H](O)[C@@H]1N(C)C(=O)CN — what was its Ki?
Ans: Not Active

Q: Sample C[C@H](C(=O)O)c1cccc(C(=O)c2ccccc2)c1 — what was its Ki?
Ans: Not Active

Q: Sample NC[C@H]1O[C@H](O[C@H]2[C@H](O)[C@@H](O[C@H]3O[C@H](CO)[C@@H](O)[C@H](N)[C@H]3O)[C@H](N)C[C@@H]2N)[C@H](O)[C@@H](O)[C@@H]1O — what was its Ki?
Ans: Not Active

* * *

# measured target: Mitogen-activated protein kinase 1 (Homo sapiens, UniProt P28482)
# Sequence (P28482 whole entry): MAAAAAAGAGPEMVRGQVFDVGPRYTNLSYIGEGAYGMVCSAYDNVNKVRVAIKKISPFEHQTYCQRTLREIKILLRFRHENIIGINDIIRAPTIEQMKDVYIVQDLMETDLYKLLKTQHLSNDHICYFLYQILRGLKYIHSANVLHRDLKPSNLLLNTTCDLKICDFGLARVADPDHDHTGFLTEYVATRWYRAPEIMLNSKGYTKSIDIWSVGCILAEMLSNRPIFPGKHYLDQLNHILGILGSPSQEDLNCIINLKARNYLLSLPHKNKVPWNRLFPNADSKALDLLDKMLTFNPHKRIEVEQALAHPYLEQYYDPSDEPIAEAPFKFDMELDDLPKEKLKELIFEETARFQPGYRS
# run description: DRUGMATRIX: Protein Serine/Threonine Kinase, ERK2 enzyme inhibition (substrate: Myelin Basic Protein)
# Set-up: species or system Escherichia coli
# study conditions: Not Active = under 50% inhibition at 10 µM
measured endpoint: IC50

Q: Write down the reported IC50 of O=C(c1ccccc1Cl)N1CCC(Cc2ccccc2)CC1 , test system: Mitogen-activated protein kinase 1 (Homo sapiens, UniProt P28482).
Ans: Not Active

Q: Write down the reported IC50 of CC[C@H]1OC(=O)[C@H](C)[C@@H](O[C@H]2C[C@@](C)(OC)[C@@H](O)[C@H](C)O2)[C@H](C)[C@@H](O[C@@H]2O[C@H](C)C[C@H](N(C)C)[C@H]2O)[C@](C)(OC)C[C@@H](C)C(=O)[C@H](C)[C@@H](O)[C@]1(C)O , test system: Mitogen-activated protein kinase 1 (Homo sapiens, UniProt P28482).
Ans: Not Active

Q: Write down the reported IC50 of Nc1nc(Cl)nc2c1ncn2[C@H]1C[C@H](O)[C@@H](CO)O1 , test system: Mitogen-activated protein kinase 1 (Homo sapiens, UniProt P28482).
Ans: Not Active

Q: Write down the reported IC50 of O=C(O)c1cccnc1 , test system: Mitogen-activated protein kinase 1 (Homo sapiens, UniProt P28482).
Ans: Not Active

* * *

# run description: DRUGMATRIX: GABAA, Flunitrazepam, Central radioligand binding (ligand: [3H] Flunitrazepam)
# Assay type: cell membranes, Rattus norvegicus, Wistar, Brain, Membrane
# study conditions: Not Active = under 50% inhibition at 10 µM
measured endpoint: Ki

// below: answered compounds
Q: Sample Clc1cc2c(cc1Cl)Oc1cc(Cl)c(Cl)cc1O2 [2,3,7,8-TETRACHLORODIBENZO-P-DIOXIN] — what was its Ki?
Ans: Not Active

Q: Sample C=C(C)[C@H]1Cc2c(ccc3c2O[C@@H]2COc4cc(OC)c(OC)cc4[C@@H]2C3=O)O1 [ROTENONE] — what was its Ki?
Ans: Not Active

Q: Sample COc1ccc(Cc2nccc3cc(OC)c(OC)cc23)cc1OC [PAPAVERINE] — what was its Ki?
Ans: Not Active

Q: Sample CNC(=C[N+](=O)[O-])NCCSCc1csc(CN(C)C)n1 [NIZATIDINE] — what was its Ki?
Ans: Not Active

Q: Sample Cc1cccc(Nc2cc(Cl)nc(SCC(=O)O)n2)c1C [PIRINIXIC ACID] — what was its Ki?
Ans: Not Active

Q: Sample COc1ccc2cc(CCC(C)=O)ccc2c1 [NABUMETONE] — what was its Ki?
Ans: Not Active

More entries:
Q: Sample Cc1cnc(C(=O)NCCc2ccc(S(=O)(=O)NC(=O)NC3CCCCC3)cc2)cn1 [GLIPIZIDE] — what was its Ki?
Ans: Not Active

Q: Sample CC1=C(CC(=O)O)c2cc(F)ccc2/C1=C\c1ccc(S(C)(=O)=O)cc1 [EXISULIND] — what was its Ki?
Ans: Not Active

Q: Sample CC(C)(Oc1ccc(C2CC2(Cl)Cl)cc1)C(=O)O (centres undefined) [CIPROFIBRATE] — what was its Ki?
Ans: Not Active

* * *

# measured target: C-X-C chemokine receptor type 2 (Homo sapiens, UniProt P25025); note: in other assays of this panel Not Active means under 50% inhibition at 10 µM
# Sequence (P25025 whole entry): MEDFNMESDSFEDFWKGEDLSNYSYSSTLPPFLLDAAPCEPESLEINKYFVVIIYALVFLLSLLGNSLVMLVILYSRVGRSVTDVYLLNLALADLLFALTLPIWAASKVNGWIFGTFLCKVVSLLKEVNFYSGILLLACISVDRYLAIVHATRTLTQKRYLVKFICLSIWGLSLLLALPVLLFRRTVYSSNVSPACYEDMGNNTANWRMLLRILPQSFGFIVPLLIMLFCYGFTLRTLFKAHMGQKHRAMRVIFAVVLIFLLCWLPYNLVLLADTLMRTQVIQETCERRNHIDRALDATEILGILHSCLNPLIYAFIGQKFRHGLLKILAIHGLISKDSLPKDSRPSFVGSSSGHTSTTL
# Format: cell membranes, Membrane
# study conditions: cho-k1
measured endpoint: IC50

Q: Sample CN1C2CCCC1CC(NC(=O)c1nn(C)c3ccccc13)C2 (centres undefined) [GRANISETRON] — what was its IC50?
Ans: Not Active

Q: Sample Cc1cccc(Nc2cc(Cl)nc(SCC(=O)O)n2)c1C [PIRINIXIC ACID] — what was its IC50?
Ans: Not Active

Q: Sample CCOC(=O)[C@H](CCc1ccccc1)N[C@@H](C)C(=O)N1Cc2ccccc2C[C@H]1C(=O)O — what was its IC50?
Ans: Not Active

Q: Sample O=P1(N(CCCl)CCCl)NCCCO1 (centres undefined) [CYCLOPHOSPHAMIDE ANHYDROUS] — what was its IC50?
Ans: Not Active

Q: Sample C[C@H]([C@](O)(Cn1cncn1)c1ccc(F)cc1F)S(C)(=O)=O [GENACONAZOLE] — what was its IC50?
Ans: Not Active

Q: Sample Nc1nc2c(c(=O)[nH]1)N(C=O)C(CNc1ccc(C(=O)N[C@@H](CCC(=O)O)C(=O)O)cc1)CN2 (some centres undefined) [LEUCOVORIN] — what was its IC50?
Ans: Not Active

Q: Sample O=c1[nH]c2ccccc2n1CCCN1CCC(n2c(=O)[nH]c3cc(Cl)ccc32)CC1 [DOMPERIDONE] — what was its IC50?
Ans: Not Active

Q: Sample CCCc1nn(C)c2c(=O)[nH]c(-c3cc(S(=O)(=O)N4CCN(C)CC4)ccc3OCC)nc12 — what was its IC50?
Ans: Not Active

More entries:
Q: Sample CN(C(=O)CCCOc1ccc2[nH]c(=O)ccc2c1)C1CCCCC1 [CILOSTAMIDE] — what was its IC50?
Ans: Not Active

Q: Sample CC[C@H]1OC(=O)[C@H](C)[C@@H](O[C@H]2C[C@@](C)(OC)[C@@H](O)[C@H](C)O2)[C@H](C)[C@@H](O[C@@H]2O[C@H](C)C[C@H](N(C)C)[C@H]2O)[C@](C)(O)C[C@@H](C)CN(C)[C@H](C)[C@@H](O)[C@]1(C)O [AZITHROMYCIN] — what was its IC50?
Ans: Not Active

Q: Sample CCn1cc(C(=O)O)c(=O)c2cc(F)c(N3CCNCC3)nc21 [ENOXACIN] — what was its IC50?
Ans: Not Active

Q: Sample O=C(c1ccccc1Cl)N1CCC(Cc2ccccc2)CC1 — what was its IC50?
Ans: Not Active

Q: Sample CCc1oc2ccccc2c1C(=O)c1cc(Br)c(O)c(Br)c1 [BENZBROMARONE] — what was its IC50?
Ans: Not Active

Q: Sample CC(=O)Nc1nnc(S(N)(=O)=O)s1 [ACETAZOLAMIDE] — what was its IC50?
Ans: Not Active

* * *

# measured target: Platelet-activating factor receptor (Homo sapiens); note: in other assays of this panel Not Active means under 50% inhibition at 10 µM
# Sequence (P25105 whole entry): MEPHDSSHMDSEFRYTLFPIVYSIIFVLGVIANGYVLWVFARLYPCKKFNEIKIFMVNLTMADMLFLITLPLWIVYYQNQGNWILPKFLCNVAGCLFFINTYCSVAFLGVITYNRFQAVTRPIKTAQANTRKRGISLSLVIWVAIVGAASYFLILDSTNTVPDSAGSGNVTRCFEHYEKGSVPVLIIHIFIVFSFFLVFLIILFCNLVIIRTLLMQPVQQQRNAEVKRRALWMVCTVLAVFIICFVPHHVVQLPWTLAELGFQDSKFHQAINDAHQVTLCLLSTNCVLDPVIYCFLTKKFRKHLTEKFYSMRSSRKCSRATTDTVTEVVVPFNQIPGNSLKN
# run description: biochemical
# Type: tissue-based
# study conditions: read-out: IC50
measured endpoint: pIC50
Schema: pIC50 number; meaning minus log10 of the concentration expressed in molar units.

Q: Sample CN(C(=O)CCCOc1ccc2[nH]c(=O)ccc2c1)C1CCCCC1 [CILOSTAMIDE] — what was its pIC50?
Ans: 5.43

* * *

# measured target: Sigma non-opioid intracellular receptor 1 (Homo sapiens, UniProt Q99720)
# Sequence (Q99720 whole entry): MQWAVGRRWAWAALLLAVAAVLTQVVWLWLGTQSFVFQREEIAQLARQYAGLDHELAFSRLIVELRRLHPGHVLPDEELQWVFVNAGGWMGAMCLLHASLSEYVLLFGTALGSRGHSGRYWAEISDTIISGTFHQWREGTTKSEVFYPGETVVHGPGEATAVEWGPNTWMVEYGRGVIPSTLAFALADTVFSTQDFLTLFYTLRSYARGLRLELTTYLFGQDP
# run description: DRUGMATRIX: Sigma1 radioligand binding (ligand: [3H] Haloperidol)
# Assay type: cell membranes, Jurkat, Membrane
# study conditions: Not Active = under 50% inhibition at 10 µM; read-out: Ki
measured endpoint: pKi
Schema: pKi number; meaning minus log10 of the concentration expressed in molar units.

// below: answered molecules
Q: Sample OCCN1CCN(CCCN2c3ccccc3Sc3ccc(C(F)(F)F)cc32)CC1 — what was its pKi?
Ans: 8.07

Q: Sample CCN[C@@H](C)Cc1cccc(C(F)(F)F)c1 — what was its pKi?
Ans: 6.66

Q: Sample O=c1n(CCCN2CCN(c3cccc(Cl)c3)CC2)nc2ccccn12 — what was its pKi?
Ans: 6.03

Q: Sample CC(CCc1ccc(O)cc1)NCCc1ccc(O)c(O)c1 (stereo not given) — what was its pKi?
Ans: 5.98

Field: next molecule
Q: Sample CCN(CC)CC#CCOC(=O)C(O)(c1ccccc1)C1CCCCC1 (stereo not given) — what was its pKi?
Ans: 7.99
